Tested on: A549
Assay: Cytotoxicity against human A549 cells assessed as cell growth inhibition incubated for 48 hrs by MTT assay
Format: functional, cell-based
Settings: A549, 48 h
VALUE_KIND: IC50 (nM)

> print(dat)
                            chemical.string  value.reported
1  C=CC/C=C/N(C)C(=O)CCCCCCCC/C=C/[C@H](CSSC[C@@H](/C=C/CCCCCCCCC(=O)N(C)/C=C/CC=C)NC(C)=O)NC(C)=O              46

* * *

Entries and their measured IC50 at 24 h follow.
Assay: Toxicity in brine shrimp assessed as induction of lethality incubated for 24 hrs by microscopic analysis
Assay type: organism-based, Artemia salina
Conditions: Artemia salina (brine shrimp)
VALUE_KIND: IC50 at 24 h

> print(dat)
                            chemical.string    value.kind  value.reported
1  C=CC/C=C/N(C)C(=O)CCCCCCCCCC/C=C/[C@@H]1CSC(C)=N1  IC50 at 24 h        > 100 µM
2                C=CC/C=C/N(C)C(=O)c1ccccc1  IC50 at 24 h        > 100 µM
3  C=CC/C=C/N(C)C(=O)CCCCCCCC/C=C/[C@H](CSSC[C@@H](/C=C/CCCCCCCCC(=O)N(C)/C=C/CC=C)NC(C)=O)NC(C)=O  IC50 at 24 h        > 130 µM
4                     C=CC/C=C/N(C)C(=O)CCC  IC50 at 24 h        > 100 µM
